Tested on: CCRF-CEM leukemia
assayComment: NCI-60 one-dose screen, 48 h
particulars: 10 µM unless noted
Compounds without any hit were thinned out: in the full panel of roughly 83,000, 20% have a hit. Active and inactive are the calls of the source. The calls were made as follows: active = growth percent below 10; inactive = the rest.
Output constraint: value belongs to active, inactive

Check out these entries, answers already filled in.
> print(dat)
                                   molecule  qualitativelabel
1                                CN=C(NN)NN          inactive
2         NC(=O)C(Br)CBr (stereo not drawn)            active
3              O=[N+]([O-])c1ccccc1N1CCNCC1          inactive
4  CCCCN(CCCC)CC(O)c1ccccc1 (stereo not drawn)          inactive
5       COc1ccc(CN2CCN(Cc3ccccc3)CC2)c(O)c1          inactive

Tell me the assay call for `CNC(=O)O/N=C(/C)c1ccc(Cl)cc1` please.
inactive

Tell me the assay call for `Nc1ccc(N)c2c1Oc1ccccc1O2` please.
inactive

Tell me the assay call for `O=C(CCF)c1ccc(O)cc1` please.
inactive

----------
Below: a set of entries, each annotated with reported growth.
System: HL-60(TB) leukemia
assayComment: NCI-60 one-dose screen, 48 h (100 = growth as untreated, 0 = no growth, -100 = all killed)
particulars: 10 µM unless noted
About 83,000 compounds went through this panel and 20% of them were active in at least one assay; those are over-represented in the sample as a whole.
// return numeric value only (unit: %, not printed)

> print(dat)
                                   compound  observable  measvalue
1  CC1OC(Oc2c(-c3ccc(O)c(O)c3)oc3cc(O)cc(O)c3c2=O)C(O)C(O)C1O (centres undefined)      growth        106
2  C[C@H]1[C@H]2C3=CC[C@@H]4[C@@]5(C)C/C(=C/c6ccco6)C(=O)C(C)(C)[C@@H]5CC[C@@]4(C)[C@]3(C)CC[C@@]2(C(=O)N2CCOCC2)CC[C@@H]1C      growth       14.7
3  COc1cc(Cl)cc(-c2nn(-c3cccc(NC(=O)c4ccc(Cl)c(Cl)c4)c3)cc2-c2ccncc2)c1      growth       94.1

Look up growth: `CCOC(=O)c1cc(C#N)n2ncc3ccccc3c12`
105

----------
System: HL-60(TB) leukemia
assayComment: NCI-60 one-dose screen, 48 h (100 = growth as untreated, 0 = no growth, -100 = all killed)
particulars: 10 µM unless noted
The panel holds about 83,000 compounds, 20% with a hit somewhere; the sample as a whole holds those more often.
Outcome label depends on growth relative to 50%: at/above gives 1 (yes), below gives 0 (no).

Check out these entries, answers already filled in.
> print(dat)
                                   compound       subjectoftest  qualitativelabel
1  O=C(CCc1nnc2sc(Cc3ccccc3Cl)nn12)c1nc2ccccc2[nH]1  HL-60(TB) leukemia           1 (yes)
2  Oc1[nH]c2ccccc2c1/C=c1/ccc2c(c1)N=C(c1ccc(C(F)(F)F)cc1)N=2  HL-60(TB) leukemia           1 (yes)
3  CCc1ccccc1-n1c(N)c(C#N)c(-c2ccc(Cl)cc2)c(C#N)c1=O  HL-60(TB) leukemia           1 (yes)
4  COc1ccc(C(=O)n2nc(/C=C/c3ccc(O)c(OC)c3)cc2/C=C/c2ccc(O)c(OC)c2)cc1  HL-60(TB) leukemia            0 (no)
5  BrCCCc1n(Cc2ccc3ccccc3c2)c2ccccc2[n+]1Cc1ccc2ccccc2c1  HL-60(TB) leukemia            0 (no)
6     O=c1oc2ccc(Br)cc2c(=O)n1-c1ccc(I)cc1F  HL-60(TB) leukemia            0 (no)

Record `O=C(Nc1ncc(Cc2ccccc2)s1)c1cc(-c2ccccc2)nc2ccccc12` ; criterion: growth no lower than 50%. Met?
1 (yes)

Record `COc1ccc(-c2c(NC(=O)Nc3ccc(Cl)c(C(F)(F)F)c3)cnn2-c2ccc(S(N)(=O)=O)cc2)cc1` ; criterion: growth no lower than 50%. Met?
0 (no)

Record `CC(=O)Nc1ccc(C(=O)/C=C/c2ccccc2)cc1` ; criterion: growth no lower than 50%. Met?
1 (yes)

Record COC(=O)C1(C)Cc2cc(OC(C)=O)c(OC(C)=O)cc2N1 (stereo not given) ; criterion: growth no lower than 50%. Met?
0 (no)
